FYI, the data here is from ChEMBL document CHEMBL1201862.

Study Target: FAD-linked sulfhydryl oxidase ALR (Homo sapiens)
Sequence (P55789 whole entry): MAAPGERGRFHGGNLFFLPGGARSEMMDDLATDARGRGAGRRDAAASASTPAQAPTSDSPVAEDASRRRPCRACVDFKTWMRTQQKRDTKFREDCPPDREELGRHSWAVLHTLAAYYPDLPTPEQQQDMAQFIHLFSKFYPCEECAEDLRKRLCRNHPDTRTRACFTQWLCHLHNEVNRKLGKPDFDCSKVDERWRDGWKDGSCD
Test Protocol: inhibitors of human ALR sulfhydryl oxidase, dose response, biochemical, H2O2 detection, luminescence, cherry-pick (AID 493248)
Calls of active or inactive are those of the source.
Measurement Label: AC50

Look over these answered cases.
[[record]]
molecule = "COc1cc(/C=N/NC(=O)c2cc(-c3ccco3)nc3ccccc23)cc(OC)c1O"
result = "0.13 µM (active)"

[[record]]
molecule = "COc1ccc(S(=O)(=O)N2CCN(CC(=O)c3ccc(O)c(O)c3)CC2)cc1"
result = "2.33 µM (active)"

[[record]]
molecule = "COc1cc(/C=N/NC(=O)C(C)n2nnc3ccccc32)ccc1O (stereo not drawn)"
result = "0.332 µM (active)"

[[record]]
molecule = "CC(=O)N1CCC2(CC1)NC(=O)N(c1ccccc1)N2"
result = "5 µM (active)"

[[record]]
molecule = "O=C(C[N+]1=C2SC=C(c3ccccc3)N2CC1)c1ccc(Br)cc1"
result = "0.221 µM (active)"

[[record]]
molecule = "Cc1ccc[n+](CC(=O)Nc2ccc(N(C)C)cc2)c1"
result = "2.2 µM (active)"

[[record]]
molecule = "CCN(CC)c1ccc(N)cc1"
result = "6.78 µM (active)"

[[record]]
molecule = "CCCCNC(=O)c1onc(CSc2ccc(C)c(C)c2)c1C(=O)O"
result = "8.26 µM (active)"


Per the record, O=S(=O)(Nc1ccc(O)c(NS(=O)(=O)c2ccccc2)c1)c1ccccc1 has AC50 of 1.23 µM (active)

Per the record, O=C(NCCSc1c[nH]c2ccccc12)C1CC1 has AC50 of 8.01 µM (active)

Per the record, COc1ccccc1NC(=O)Nc1ncccc1C has AC50 of 0.903 µM (active)

Per the record, Brc1ccc(CN2CCN(c3ccccc3)CC2)o1 has AC50 of 2.03 µM (active)

Per the record, O=S(=O)(NNc1ccc(F)cc1F)c1cccc(Cl)c1 has AC50 of 1.35 µM (active)

* * *

Study Target: Histone-lysine N-methyltransferase NSD2 (Homo sapiens)
Sequence (O96028 whole entry): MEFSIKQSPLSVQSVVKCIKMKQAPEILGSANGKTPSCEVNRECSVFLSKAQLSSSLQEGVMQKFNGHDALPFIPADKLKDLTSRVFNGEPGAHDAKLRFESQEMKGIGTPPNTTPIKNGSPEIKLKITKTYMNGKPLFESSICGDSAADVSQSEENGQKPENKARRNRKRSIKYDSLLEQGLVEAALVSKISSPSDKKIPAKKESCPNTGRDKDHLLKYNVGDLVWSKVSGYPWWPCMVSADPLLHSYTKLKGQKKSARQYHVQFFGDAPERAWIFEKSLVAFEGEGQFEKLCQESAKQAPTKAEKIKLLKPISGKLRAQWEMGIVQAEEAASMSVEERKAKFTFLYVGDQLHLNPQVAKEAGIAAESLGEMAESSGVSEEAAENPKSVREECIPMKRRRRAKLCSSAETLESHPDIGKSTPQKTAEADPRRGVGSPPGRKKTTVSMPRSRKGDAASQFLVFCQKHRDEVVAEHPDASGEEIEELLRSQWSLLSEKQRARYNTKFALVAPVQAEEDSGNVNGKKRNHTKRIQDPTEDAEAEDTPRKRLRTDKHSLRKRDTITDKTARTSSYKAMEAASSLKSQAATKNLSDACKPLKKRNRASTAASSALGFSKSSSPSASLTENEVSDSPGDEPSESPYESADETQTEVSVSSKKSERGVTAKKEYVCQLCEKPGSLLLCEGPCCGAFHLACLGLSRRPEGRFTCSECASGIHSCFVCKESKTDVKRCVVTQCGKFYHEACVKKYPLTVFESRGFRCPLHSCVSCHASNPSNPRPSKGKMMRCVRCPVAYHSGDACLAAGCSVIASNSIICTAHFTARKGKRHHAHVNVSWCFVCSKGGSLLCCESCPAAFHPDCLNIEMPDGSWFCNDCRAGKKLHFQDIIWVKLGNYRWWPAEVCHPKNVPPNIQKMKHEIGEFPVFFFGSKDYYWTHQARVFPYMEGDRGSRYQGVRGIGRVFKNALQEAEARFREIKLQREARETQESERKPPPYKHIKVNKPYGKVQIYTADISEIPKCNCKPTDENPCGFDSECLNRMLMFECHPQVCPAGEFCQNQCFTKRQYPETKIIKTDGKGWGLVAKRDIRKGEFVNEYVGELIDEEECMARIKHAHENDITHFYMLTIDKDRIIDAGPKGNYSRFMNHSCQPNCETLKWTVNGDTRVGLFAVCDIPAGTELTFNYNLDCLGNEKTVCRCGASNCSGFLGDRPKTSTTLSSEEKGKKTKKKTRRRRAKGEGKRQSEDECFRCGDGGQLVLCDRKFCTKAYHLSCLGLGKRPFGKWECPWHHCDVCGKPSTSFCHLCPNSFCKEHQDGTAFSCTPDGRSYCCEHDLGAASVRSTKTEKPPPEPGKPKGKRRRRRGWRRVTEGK
Format: biochemical
Calls of active or inactive are those of the source.
Parameter call: string, one of True (active), False (inactive)

Reference set, count: 3
[[record]]
molecule = "COc1cccc2c1C(=N)c1c(O)c3c(c(O)c1C2=O)C[C@@](O)(C(C)=O)C[C@@H]3O[C@H]1C[C@H](N)[C@H](O)[C@H](C)O1"
qualitative_label = "True"

[[record]]
molecule = "COc1ccc(C(=O)c2nccc3cc(OC)c(OC)cc23)cc1OC"
qualitative_label = "True"

[[record]]
molecule = "COc1ccc(S(=O)(=O)N2CCN(CC(=O)c3ccc(O)c(O)c3)CC2)cc1"
qualitative_label = "True"


Answer briefly: the call reported for CCN(CC)CCNc1nc(SC)nc2sc3c(c12)CCN(C)C3 in this assay.
False

Answer briefly: the call reported for CCCCCNc1nc(NCCCO)c(C#N)c2c1CN(C)CC2 in this assay.
False

Answer briefly: the call reported for CN(C)c1ccc(NC2=C(Cl)C(=O)c3ccccc3C2=O)cc1 in this assay.
True

Answer briefly: the call reported for Nc1cccc2cnccc12 in this assay.
False

* * *

Readings of EC50 for the listed molecules
Study Target: Heat shock factor protein 1 (Mus musculus)
Sequence (P38532 whole entry): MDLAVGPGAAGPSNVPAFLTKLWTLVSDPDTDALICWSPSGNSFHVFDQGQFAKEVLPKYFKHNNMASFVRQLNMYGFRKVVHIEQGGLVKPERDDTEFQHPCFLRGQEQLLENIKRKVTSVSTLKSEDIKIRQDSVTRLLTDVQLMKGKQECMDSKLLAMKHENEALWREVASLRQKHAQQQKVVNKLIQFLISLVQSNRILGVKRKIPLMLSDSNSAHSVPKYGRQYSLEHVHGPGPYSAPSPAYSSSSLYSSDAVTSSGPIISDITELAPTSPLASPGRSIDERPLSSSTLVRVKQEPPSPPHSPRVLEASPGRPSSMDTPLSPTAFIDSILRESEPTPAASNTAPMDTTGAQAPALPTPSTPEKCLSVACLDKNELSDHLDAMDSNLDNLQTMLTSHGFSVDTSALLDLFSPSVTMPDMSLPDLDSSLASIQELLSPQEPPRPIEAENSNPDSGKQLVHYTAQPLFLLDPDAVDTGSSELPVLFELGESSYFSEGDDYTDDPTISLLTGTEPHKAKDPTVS
Test Protocol: inhibition of MG132-induced HSE-luciferase signal, confirmation, cell-based, NIH3T3, luminescence, dose retest (AID 2382);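 further: NIH3T3 fibroblasts with HSF1-driven luciferase reporter stressed by proteasome inhibitor MG132; luminescence from HSF1-driven luciferase expression after 8 hours of MG132 stress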
Assay type: functional
Calls of active or inactive are those of the source.

Look over these answered cases.
[[record]]
molecule = "O=C(CCl)Nc1cc(SCC(O)CO)cc([N+](=O)[O-])c1 (stereo not given)"
result = "2.13 µM (active)"

[[record]]
molecule = "Cn1cc(/C=C(\\C#N)C(=O)Nc2cccc([N+](=O)[O-])c2)c2ccccc21"
result = "4.14 µM (active)"

[[record]]
molecule = "CC(=O)COc1ccccc1OC(=O)c1ccco1"
result = "> 195 µM (not active)"


Next molecule, EC50 to be filled in.
Per the record, CCCCOc1ccc(N2CC(C(=O)NCCc3ccc(OC)c(OC)c3)CC2=O)cc1 (stereo not given) has EC50 of > 195 µM (not active)
